src = PubChem BioAssay

protocol.text: fission yeast growth modulation, primary screen, strain 972, OD600, 24 h, no modulator (AID 1090);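 note: basal condition with compound alone and no growth modifier present; test concentration not given here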
particulars: S. pombe 972 growth, higher = more signal, called active from +8 up or from −8 down
result.type: z-score
Please respond with just the number, no unit label.

Can you share its z-score? I mean this molecule: `COC(=O)c1c(CC[C@@H](CO)NC(=O)N[C@H](Cc2ccccc2)Cn2cc(-c3ccccc3N)nn2)oc(C(C)=O)c1C(=O)OC` -1.15

Can you share its z-score? I mean this molecule: `COc1ccc(COC(=O)NN=C2C[C@@H](O)[C@@H](O)[C@@H]3[C@@H]4C(=O)N(c5ccc(F)cc5F)C(=O)[C@@H]4CC[C@@H]23)cc1` -0.423

Can you share its z-score? I mean this molecule: `C=CCNC(=O)[C@H]1[C@@H]2C(=O)O[C@@H](c3ccccc3)[C@@H](c3ccccc3)N2[C@@H](c2ccc(O)cc2)[C@]12C(=O)N(C(=O)OCCOC)c1ccc(C#CC3=CCCCC3)cc12` 0.111

Can you share its z-score? I mean this molecule: `CO[C@@H]1COC(=O)CC=C[C@@H](C)COC(=O)[C@H](COCc2ccccc2)NC(=O)CC=C[C@H]1C` -0.584

Can you share its z-score? I mean this molecule: `O=C1[C@H]2[C@H]3[C@H](O)[C@H](O)CC(=NOCc4ccccc4)[C@H]3CC[C@H]2C(=O)N1C[C@@H]1CCCO1` 0.531

Can you share its z-score? I mean this molecule: `O=C1[C@H]2[C@H]3[C@H](O)[C@H](O)CC(=NOCc4ccccc4)[C@H]3CC[C@H]2C(=O)N1c1cccc(Oc2ccccc2)c1` 0.019

Can you share its z-score? I mean this molecule: COC(=O)[C@H](C)NC(=O)CCC1CC(OC(=O)NCc2ccc3c(c2)OCO3)CC2(CCCC(COC(=O)NCCOc3ccccc3)O2)O1 (some centres undefined) 0.26

Can you share its z-score? I mean this molecule: `C=C(CCCC)C(=O)CC[C@@H](OC(C)=O)c1cccc(OCCO)c1` -20.6

Can you share its z-score? I mean this molecule: `CCOC(=O)NN=C1C[C@@H](O)[C@@H](O)[C@@H]2[C@@H]3C(=O)N(C4CCCCC4)C(=O)[C@@H]3CC[C@@H]12` -0.895

Can you share its z-score? I mean this molecule: `O=C(CS)NCCCCCNC(=O)[C@@H]1C[C@@H]2C(=O)N[C@@H](Cc3ccccc3)C(=O)N2[C@@H]1c1ccc(O)cc1` -0.321

Can you share its z-score? I mean this molecule: `COC(=O)[C@@H]1N=C(c2ccc(OCCCO)cc2)O[C@@H]1c1ccccc1N=[N+]=[N-]` -7.5

Can you share its z-score? I mean this molecule: COC(=O)[C@H](C)NC(=O)CCC1CC(OC(=O)NCc2cccc3ccccc23)CC2(CCCC(COC(=O)NCCc3ccc(Cl)cc3)O2)O1 (some centres undefined) -0.253

Can you share its z-score? I mean this molecule: `O=C1C[C@@H](O)[C@@H](O)[C@@H]2[C@@H]3C(=O)N(c4ccc(F)cc4F)C(=O)[C@@H]3CC[C@@H]12` -0.413

Can you share its z-score? I mean this molecule: `CC(=O)OC[C@H]1O[C@H](CCON=C[C@@H](C)[C@H](OCc2ccccc2)C(C)C)C=C[C@@H]1OC(C)=O` -0.205
